// reported pIC50 for each item listed
# TARGET OF ASSAY: CDK7/CycH/MNAT1 (Homo sapiens (Human), UniProt P50613)
# Sequence (P50613 whole entry): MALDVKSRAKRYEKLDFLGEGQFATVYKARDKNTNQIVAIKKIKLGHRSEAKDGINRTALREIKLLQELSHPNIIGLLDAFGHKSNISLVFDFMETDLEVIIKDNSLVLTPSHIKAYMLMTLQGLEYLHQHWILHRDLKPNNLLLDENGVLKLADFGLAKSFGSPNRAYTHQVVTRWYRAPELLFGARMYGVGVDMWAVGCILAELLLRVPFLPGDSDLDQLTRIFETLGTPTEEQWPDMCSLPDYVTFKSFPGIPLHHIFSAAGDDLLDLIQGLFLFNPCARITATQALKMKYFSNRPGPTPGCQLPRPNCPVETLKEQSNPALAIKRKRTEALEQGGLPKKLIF
# Sequence (P51946 whole entry partner): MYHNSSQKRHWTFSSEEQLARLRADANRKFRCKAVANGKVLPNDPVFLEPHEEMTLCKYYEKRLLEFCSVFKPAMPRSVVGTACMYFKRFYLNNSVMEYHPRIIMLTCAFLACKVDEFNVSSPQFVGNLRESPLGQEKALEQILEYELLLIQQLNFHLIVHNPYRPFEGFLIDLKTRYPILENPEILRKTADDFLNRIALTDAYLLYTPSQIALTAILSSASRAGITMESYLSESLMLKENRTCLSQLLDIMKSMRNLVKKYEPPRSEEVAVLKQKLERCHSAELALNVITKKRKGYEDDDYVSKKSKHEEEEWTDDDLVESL
# Sequence (P51948 whole entry partner): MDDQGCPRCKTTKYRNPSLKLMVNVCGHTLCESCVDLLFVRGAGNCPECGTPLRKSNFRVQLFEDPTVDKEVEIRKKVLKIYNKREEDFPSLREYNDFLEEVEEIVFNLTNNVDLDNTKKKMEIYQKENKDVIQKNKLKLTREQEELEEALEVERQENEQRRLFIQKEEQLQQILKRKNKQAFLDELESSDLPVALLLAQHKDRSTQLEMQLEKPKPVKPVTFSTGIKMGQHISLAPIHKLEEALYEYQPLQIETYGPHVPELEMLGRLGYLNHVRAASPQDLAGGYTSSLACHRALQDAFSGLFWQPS
# ASSAY EXPLANATION: Biochemical Assay for CDK7 (TR-FRET kinase assay)
# ASSAY CONTEXT: 60 min pre-incubation with kinase; 1 mM ATP
pIC50: −log10 of the molar value.

Example entries and their recorded answers appear below.
C=CC(=O)NCc1ccc(-c2cccc(C(C)C(=O)Nc3cc(C4CC4)[nH]n3)c2)cn1 (stereo not shown) [Compound 74]: < 7.00
CC(C(=O)Nc1cc(C2CC2)[nH]n1)c1cccc(-c2ccc(NC(=O)/C=C/CN3CC[C@H](F)C3)c(F)c2)c1 (stereo partly shown) [Compound 80]: 7.00 to 7.60
C=CC(=O)Nc1ccc(-c2cccc(C(CC)C(=O)Nc3cc(C4CC4)[nH]n3)c2)nc1 (stereo not shown) [Compound 26]: > 7.60

Query :: Missing value: pIC50, CDK7/CycH/MNAT1 (Homo sapiens (Human), UniProt P50613), entry C=CC(=O)Nc1cncc(-c2cccc(C(C)C(=O)Nc3cc(C4CC4)[nH]n3)c2)n1 (stereo not shown) [Compound 79] . Fill in?
Result :: > 7.60

Query :: Lookup O=C(/C=C/CN1CCCC1)Nc1ccc(-c2cccc(C3(C(=O)Nc4cc(C5CC5)[nH]n4)CC3)c2)cn1 [Compound 94]
Result :: < 7.00

Query :: Lookup CC(C(=O)Nc1cc(C2CC2)[nH]n1)c1cccc(-c2ccc(NC(=O)/C=C/CN3CCOCC3)cn2)c1 (stereo not shown) [Compound 35]
Result :: < 7.00

Query :: Lookup CC(C(=O)Nc1cc(C2CC2)[nH]n1)c1ccc(F)c(-c2ccc(NC(=O)/C=C/CN(C)C)cc2)c1 (stereo not shown) [Compound 4]
Result :: < 7.00

Query :: Lookup C=CC(=O)Nc1ccc(C(=O)Nc2cccc(Nc3cc(CC)[nH]n3)c2)cc1 [Compound 83]
Result :: < 7.00

Query :: Lookup COC[C@@H]1C[C@H](F)CN1C/C=C/C(=O)Nc1ccc(-c2cccc(C(C)C(=O)Nc3cc(C4CC4)[nH]n3)c2)cn1 (stereo partly shown) [Compound 77]
Result :: 7.00 to 7.60

Query :: Lookup CC(C(=O)Nc1cc(C2CC2)[nH]n1)c1cccc(-c2ccc(NC(=O)/C=C/CN3CCOCC3)nc2F)c1 (stereo not shown) [Compound 59]
Result :: 7.00 to 7.60

Query :: Lookup CN(C)C/C=C/C(=O)Nc1ccc(-c2cccc(CC(=O)Nc3cc(C4CC4)[nH]n3)c2)cc1 [Compound 7]
Result :: < 7.00

Query :: Lookup CCC(C(=O)Nc1cc(C2CC2)[nH]n1)c1cccc(-c2ccc(NC(=O)/C=C/CN(C)C)cc2)c1 (stereo not shown) [Compound 13]
Result :: 7.00 to 7.60

Query :: Lookup CC(C(=O)Nc1n[nH]c2ccccc12)c1cccc(-c2ccc(NC(=O)/C=C/CN(C)C)cc2)c1 (stereo not shown) [Compound 91]
Result :: < 7.00

Query :: Lookup CC(C(=O)Nc1cc(C2CC2)[nH]n1)c1cccc(-c2ccc(NC(=O)/C=C/CN3CC[C@@H](F)C3)nc2)c1 (stereo partly shown) [Compound 49]
Result :: > 7.60

Query :: Lookup CC(C)C(C(=O)Nc1cc(C2CC2)[nH]n1)c1cccc(-c2ccc(NC(=O)/C=C/CN(C)C)cn2)c1 (stereo not shown) [Compound 36]
Result :: > 7.60
